Cited source for all entries: patent US20220089784A1

# experimental.system: T1, BoNT/B1 (Clostridium botulinum, UniProt P10844 2-1291)
# T1 sequence: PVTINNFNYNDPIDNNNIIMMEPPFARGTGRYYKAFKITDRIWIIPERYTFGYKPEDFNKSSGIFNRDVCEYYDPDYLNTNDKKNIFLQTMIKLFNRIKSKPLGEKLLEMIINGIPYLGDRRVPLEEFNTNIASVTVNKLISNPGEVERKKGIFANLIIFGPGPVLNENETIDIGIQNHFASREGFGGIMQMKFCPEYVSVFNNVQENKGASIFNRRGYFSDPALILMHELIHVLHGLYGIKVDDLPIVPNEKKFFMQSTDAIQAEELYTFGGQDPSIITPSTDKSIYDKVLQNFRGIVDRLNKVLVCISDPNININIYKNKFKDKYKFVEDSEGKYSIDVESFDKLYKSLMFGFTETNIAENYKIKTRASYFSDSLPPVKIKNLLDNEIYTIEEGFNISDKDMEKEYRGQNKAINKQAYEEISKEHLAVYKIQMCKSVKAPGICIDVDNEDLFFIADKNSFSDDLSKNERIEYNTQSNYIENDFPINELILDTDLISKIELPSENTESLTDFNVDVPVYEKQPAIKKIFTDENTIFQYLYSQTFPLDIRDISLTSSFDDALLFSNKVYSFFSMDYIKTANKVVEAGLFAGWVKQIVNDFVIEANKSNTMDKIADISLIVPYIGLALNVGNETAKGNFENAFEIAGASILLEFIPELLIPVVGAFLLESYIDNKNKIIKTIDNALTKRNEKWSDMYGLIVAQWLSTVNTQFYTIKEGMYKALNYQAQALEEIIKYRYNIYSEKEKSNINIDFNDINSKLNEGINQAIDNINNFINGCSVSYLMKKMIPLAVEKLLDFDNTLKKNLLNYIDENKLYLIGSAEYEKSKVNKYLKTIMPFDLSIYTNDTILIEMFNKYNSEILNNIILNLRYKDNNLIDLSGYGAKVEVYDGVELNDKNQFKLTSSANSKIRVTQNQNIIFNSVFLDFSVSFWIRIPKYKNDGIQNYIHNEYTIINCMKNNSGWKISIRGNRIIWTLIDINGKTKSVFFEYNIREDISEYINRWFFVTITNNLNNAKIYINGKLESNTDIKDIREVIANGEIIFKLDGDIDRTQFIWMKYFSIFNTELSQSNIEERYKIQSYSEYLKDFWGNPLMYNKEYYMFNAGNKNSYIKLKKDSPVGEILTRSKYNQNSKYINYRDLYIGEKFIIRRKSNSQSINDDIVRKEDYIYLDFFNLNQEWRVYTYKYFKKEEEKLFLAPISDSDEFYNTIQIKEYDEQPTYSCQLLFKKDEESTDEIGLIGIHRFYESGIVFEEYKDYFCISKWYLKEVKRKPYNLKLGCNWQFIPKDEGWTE
# assay.protocol: yeast scFv FACS
Listing of entries alongside the reported pKd.
Quick note: pKd values are minus log10 of concentrations in mol/L.

26G5 scFv (scFv, mouse) scFv: EVQLQESGPGLAKPSQTLSLTCSVTGYSITSDYWNWIRKFPGNKLEYMGYISYSGSTYYNPSLKSRISITRDTSKNQYYLQLNSVTTEDTATYYCARSFYDGYLYFDYWGQGTTVTVSSVDLKSGGSTSGSGKPGSGEGSSGSAREIVLTQSPAILSASPGEKVTMTCSASSSVSYMYWYQQKPGSSPRLLIYDTSNLASGVPARFSGSGSGTSYSLTISRVEAEDAATYYCQQWSSYPPTFGDGTRLEIK	8.41

Provide only the value of recorded pKd for 26E6 scFv (scFv, mouse) scFv: EVQLQQSGPELVKPGASVKISCKASGYTFADYYINWVKQSHGKSLEWIGDFNPNNGDHSYNQKFKDKATLTVDESSNTAYMELRSLTSEDSAVYYCTREFYYYFDVWGTGTTVTVSSVDLKSGGSTSGSGKPGSGEGSSGSARDIVMSQSPLSLPVSLGDQAFISCRFSQSIVHSNGNTYLEWYLQKPGQSPKLLIYKVSNRFSGVPDRFSGSGSGTDFTLKISRVEAEDLGVYYCFQGSHVPYTFGGGTKLEIK 8.31

Provide only the value of recorded pKd for 26C2 scFv (scFv, mouse) scFv: QVQLKQSGPELVKPGASVKLSCKASGYTFTSYDINWVKQRPGQGLEWIGWIYPRDDITKYNEKFKDKATLTVDTSSSTAYMELHSLTSEDSAVYFCARGDYYGSLDYWGQGTTLTVSSVDLKSGGSTSGSGKPGSGEGSSGSARQIVLTQSPAIMSASPGEKVTMTCSASSSVSYMHWYQQKSSTSPKLWIYDTSKLASGVPGRFSGSGSGNSYSLTISSMEAEDVATYYCFQGSGYPLTFGAGTKLEIK 7.63

Provide only the value of recorded pKd for 26B2 scFv (scFv, mouse) scFv: DVQLQESGPELVKPGASVKISCKASGYTFADYYINWVKQSHGKSLEWIGDFNPNNGDHSYNQKFKDKATLTVDESSNTAYMELRSLTSEDSAVYYCTREFYYYFDVWGTGTSVTVSSVDLKSGGSTSGSGKPGSGEGSSGSARDIEMTQTPAIMSASPGEKVTMTCSASSSVSSRYLHWYQQKSGASPKLWIYGTSNLASGVPARFSGSGSGTSYSLTISNVEAEDAATYYCQQYHSDPLTFGAGTKLEIK 9.56
